In this section we review reported IC50 values for a set of compounds.
# assayTarget: human FAAH (Fatty Acid Amide Hydrolase) (Homo sapiens)
# Construct: The full length FAAH was subcloned into the mammalian expression vector, pcDEF.neo
# Sequence (O00519 whole entry): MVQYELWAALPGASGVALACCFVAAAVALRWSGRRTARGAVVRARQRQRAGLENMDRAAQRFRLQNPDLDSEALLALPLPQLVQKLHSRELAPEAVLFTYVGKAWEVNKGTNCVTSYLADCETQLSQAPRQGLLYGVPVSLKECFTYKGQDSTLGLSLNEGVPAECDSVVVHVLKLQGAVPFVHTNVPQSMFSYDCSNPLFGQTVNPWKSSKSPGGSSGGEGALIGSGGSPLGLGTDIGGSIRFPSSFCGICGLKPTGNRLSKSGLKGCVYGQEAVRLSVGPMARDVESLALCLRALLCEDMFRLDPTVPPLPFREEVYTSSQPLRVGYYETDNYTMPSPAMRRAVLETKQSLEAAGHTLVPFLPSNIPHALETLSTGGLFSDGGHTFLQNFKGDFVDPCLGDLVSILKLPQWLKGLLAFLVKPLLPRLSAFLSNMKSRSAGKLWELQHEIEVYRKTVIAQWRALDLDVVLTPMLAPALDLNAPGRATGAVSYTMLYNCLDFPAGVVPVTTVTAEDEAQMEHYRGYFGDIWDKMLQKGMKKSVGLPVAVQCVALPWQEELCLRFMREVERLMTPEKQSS
# methodNotes: FAAH enzyme assay on lysate of CHO cells expressing human FAAH
# Format: biochemical
Counter-ions that a name gives are not always drawn.
State just the number; it will be interpreted in nM.

Before answering, review these 3 worked examples.
Record summary for CC(C)(O)c1ccc(-c2nc(-c3ccc(F)c(F)c3)oc2Sc2ccc(Cl)cn2)cn1 [Ex 35] : reported IC50 = 27

Record summary for CC(C)(O)c1ccc(-c2nc(-c3ccccn3)oc2Sc2ccc(F)cn2)cn1 [Ex 125] : reported IC50 = 93

Record summary for CC(C)(O)c1ccc(-c2nc(-c3ccccn3)oc2Sc2ccc(Cl)cn2)cn1 [Ex 51, trifluoroacetic acid salt] : reported IC50 = 26

More entries:
Record summary for CC(C)(O)c1ccc(-c2nc(-c3ccc(F)cc3)oc2Sc2ccc(Cl)cn2)cn1 [Ex 12] : reported IC50 = 19

Record summary for N#CC1(c2ccc(-c3nc(-c4ccc(F)cc4)oc3Sc3ccc(Cl)cn3)cn2)CC(O)C1 (centres unmarked) [Ex 122] : reported IC50 = 161

---

# assayTarget: human FAAH (Fatty Acid Amide Hydrolase) (Homo sapiens)
# Construct: The full length FAAH was subcloned into the mammalian expression vector, pcDEF.neo
# methodNotes: FAAH enzyme assay on lysate of CHO cells expressing human FAAH
# Assay type: biochemical
metric: pIC50
Notebook: values listed as pIC50 are -log10 of the concentration (mol/L).

Before answering, review these 2 worked examples.
For CC(C)(O)c1ccc(-c2nc(-c3ccc(F)cc3)oc2Sc2ccc(Cl)cn2)nn1 on human FAAH (Fatty Acid Amide Hydrolase) (Homo sapiens), measured pIC50 was 7.77

For CC(C)(O)c1ccc(-c2nc(-c3cncc(Cl)c3)oc2Sc2ccc(Cl)cn2)cn1 on human FAAH (Fatty Acid Amide Hydrolase) (Homo sapiens), measured pIC50 was 7.55

Read the next record carefully.
For Fc1ccc(-c2nc(-c3ccc(-c4ncon4)cc3)c(Sc3ccc(Cl)cc3)o2)cc1 on human FAAH (Fatty Acid Amide Hydrolase) (Homo sapiens), measured pIC50 was 8.05

---

In this section we review reported IC50 values for a set of compounds.
# assayTarget: human FAAH (Fatty Acid Amide Hydrolase) (Homo sapiens)
# Construct: The full length FAAH was subcloned into the mammalian expression vector, pcDEF.neo
# methodNotes: FAAH enzyme assay on lysate of CHO cells expressing human FAAH
# Assay type: biochemical
State just the number; it will be interpreted in nM.

Before answering, review these 2 worked examples.
Record summary for CCOC(=O)c1cc(-c2nc(-c3ccc(F)cc3)oc2Sc2ccc(Cl)cn2)on1 [Ex 97] : reported IC50 = 20

Record summary for Fc1ccc(-c2nc(-c3ccc(-c4ncon4)nc3)c(Sc3ccc(Cl)cn3)o2)cc1 [Ex 71] : reported IC50 = 10

Read the next record carefully.
Record summary for CC(C)(O)c1ncc(-c2nc(-c3ccc(F)cc3)oc2Sc2ccc(Cl)cn2)cn1 [Ex 74] : reported IC50 = 8
